Hello, the source for this data is paper PMC9592910, in case you need it.

# procedure.summary: Pharmacokinetics of GQD constituents in the systemic circulation of mice after oral GQD
# Assay type: in vivo, Kunming mice
# experimental.setup: both, Kunming, mouse, in vivo; systemic circulation plasma, mice, oral GQD 6.1 g/kg
quantity.name: Cmax (ng/mL)

chemical.smiles | reported.value
O=c1c(-c2ccc(O)cc2)coc2cc(O[C@@H]3O[C@H](CO)[C@@H](O)[C@H](O)[C@H]3O)ccc12 | 49

---

# procedure.summary: Pharmacokinetics of GQD constituents in the portal vein of mice after oral GQD
# Assay type: in vivo, Kunming mice
# experimental.setup: both, Kunming, mouse; portal vein plasma, mice, oral GQD extract 6.1 g/kg; read-out: AUC0–24 h

compound | endpoint.unit | AUC(0-t)
O=C(O)[C@H]1O[C@@H](Oc2cc3oc(-c4ccccc4)cc(=O)c3c(O)c2O)[C@H](O)[C@@H](O)[C@@H]1O [Baicalin, baicalin] | ng·h/mL | 46300
O=c1c(-c2ccc(O)cc2)coc2c([C@@H]3O[C@H](CO)[C@@H](O)[C@H](O)[C@H]3O)c(O)ccc12 [Puerarin, puerarin] | ng·h/mL | 6710
CC1(C)[C@@H](O)CC[C@]2(C)[C@H]3C(=O)C=C4[C@@H]5C[C@@](C)(C(=O)O)CC[C@]5(C)CC[C@@]4(C)[C@]3(C)CC[C@@H]12 [Glycyrrhetinic acid, glycyrrhetinic acid] | ng·h/mL | 5330

---

Listing of recorded half-life by entry.
# procedure.summary: Pharmacokinetics/tissue distribution of GQD constituents in the livers of mice after oral GQD
# Assay type: in vivo, Kunming mice
# experimental.setup: both, Kunming, mouse, liver (homogenate), po, […], liver, mice, oral GQD extract […]; read-out: T1/2 (converted)

chemical.smiles | half-life
COc1ccc2cc3[n+](cc2c1OC)CCc1cc2c(cc1-3)OCO2 | ~10 h
COc1cc2c(cc1O)CC[n+]1cc3c(OC)c(OC)ccc3cc1-2 | 2.4 h
O=c1cc(-c2ccccc2)oc2cc(O)c(O)c(O)c12 | 2 to 3 h
O=C(O)[C@H]1O[C@@H](Oc2cc3oc(-c4ccccc4)cc(=O)c3c(O)c2O)[C@H](O)[C@@H](O)[C@@H]1O | 1 to 2 h

---

# Lookup of reported log10(Tmax) keyed by entry
# procedure.summary: Pharmacokinetics/tissue distribution of GQD constituents in the livers of mice after oral GQD
# Type: in vivo, Kunming mice
# experimental.setup: both, Kunming, mouse, liver (homogenate); liver, mice, oral GQD extract 6.1 g/kg; read-out: Tmax
quantity.name: log10(Tmax) (log10 of the value in h)

chemical.smiles | reported.value
COc1cc2c(cc1O)CC[n+]1cc3c(OC)c(OC)ccc3cc1-2 | 0.60
O=C(O)[C@H]1O[C@@H](Oc2cc3oc(-c4ccccc4)cc(=O)c3c(O)c2O)[C@H](O)[C@@H](O)[C@@H]1O | 0.30
O=c1c(-c2ccc(O)cc2)coc2c([C@@H]3O[C@H](CO)[C@@H](O)[C@H](O)[C@H]3O)c(O)ccc12 | -0.30
COc1c(O)cc(O)c2c(=O)cc(-c3ccccc3)oc12 | 0.60
COc1ccc2c(c1O)-c1c(O)c(OC)cc3c1[C@H](C2)[N+](C)(C)CC3 | -0.60
COc1ccc2cc3[n+](cc2c1OC)CCc1cc2c(cc1-3)OCO2 | 0.60
O=c1cc(-c2ccccc2)oc2cc(O)c(O)c(O)c12 | 0.60
CC1(C)[C@@H](O)CC[C@]2(C)[C@H]3C(=O)C=C4[C@@H]5C[C@@](C)(C(=O)O)CC[C@]5(C)CC[C@@]4(C)[C@]3(C)CC[C@@H]12 | 0.60
COc1ccc2cc3[n+](cc2c1O)CCc1cc2c(cc1-3)OCO2 | 0.60
CC1(C)[C@@H](O[C@H]2O[C@H](C(=O)O)[C@@H](O)[C@H](O)[C@H]2O[C@@H]2O[C@H](C(=O)O)[C@@H](O)[C@H](O)[C@H]2O)CC[C@]2(C)[C@H]3C(=O)C=C4[C@@H]5C[C@@](C)(C(=O)O)CC[C@]5(C)CC[C@@]4(C)[C@]3(C)CC[C@@H]12 | 0.00

---

# procedure.summary: Pharmacokinetics of GQD constituents in the systemic circulation of mice after oral GQD
# Type: in vivo, Kunming mice
# experimental.setup: both, Kunming, mouse; systemic circulation plasma, mice, oral GQD 6.1 g/kg; read-out: AUC0–24 h
Each entry below lists one item and its recorded log10 of AUC(0-t) value.
quantity.name: log10 of AUC(0-t) (log10 of the value in ng·h/mL)

chemical.smiles | log10 of AUC(0-t)
COc1cc2c(cc1O)CC[n+]1cc3c(OC)c(OC)ccc3cc1-2 | 1.42
COc1c(O)cc(O)c2c(=O)cc(-c3ccccc3)oc12 | 2.48
O=c1cc(-c2ccccc2)oc2cc(O)c(O)c(O)c12 | 2.36
COc1ccc2cc3[n+](cc2c1OC)CCc1cc2c(cc1-3)OCO2 | 2.62
COc1ccc2c(c1O)-c1c(O)c(OC)cc3c1[C@H](C2)[N+](C)(C)CC3 | 1.98
O=C(O)[C@H]1O[C@@H](Oc2cc3oc(-c4ccccc4)cc(=O)c3c(O)c2O)[C@H](O)[C@@H](O)[C@@H]1O | 3.94
O=c1c(-c2ccc(O)cc2)coc2c([C@@H]3O[C@H](CO)[C@@H](O)[C@H](O)[C@H]3O)c(O)ccc12 | 3.72
CC1(C)[C@@H](O)CC[C@]2(C)[C@H]3C(=O)C=C4[C@@H]5C[C@@](C)(C(=O)O)CC[C@]5(C)CC[C@@]4(C)[C@]3(C)CC[C@@H]12 | 3.33

---

Collected half-life values appear next to each entry.
# procedure.summary: Pharmacokinetics/tissue distribution of GQD constituents in the livers of mice after oral GQD
# Type: in vivo, Kunming mice
# experimental.setup: both, Kunming, mouse, in vivo, po, […], T1/2
quantity.name: half-life (h)

molecule | reported.value
O=C1C[C@@H](c2ccc(O[C@@H]3O[C@H](CO)[C@@H](O)[C@H](O)[C@H]3O)cc2)Oc2cc(O)ccc21 [Liquiritin, liquiritin] | 19.7
c1c2c(cc3c1OCO3)-c1cc3ccc4c(c3c[n+]1CC2)OCO4 [Coptisine, coptisine] | 3.7

---

As shown below, each of these molecules has a reported Cmax value.
# procedure.summary: Pharmacokinetics of GQD constituents in the portal vein of mice after oral GQD
# Format: in vivo, Kunming mice
# experimental.setup: both, Kunming, mouse; portal vein plasma, mice, oral GQD extract 6.1 g/kg
quantity.name: Cmax (ng/mL)

chemical.smiles | reported.value
COc1ccc2cc3[n+](cc2c1O)CCc1cc2c(cc1-3)OCO2 | 10.3
COc1cc2c(cc1O)CC[n+]1cc3c(OC)c(OC)ccc3cc1-2 | 16.6
COc1ccc2cc3[n+](cc2c1OC)CCc1cc2c(cc1-3)OCO2 | 191
COc1c(O)cc(O)c2c(=O)cc(-c3ccccc3)oc12 | 1220
O=C(O)[C@H]1O[C@@H](Oc2cc3oc(-c4ccccc4)cc(=O)c3c(O)c2O)[C@H](O)[C@@H](O)[C@@H]1O | 8150
O=c1c(-c2ccc(O)cc2)coc2c([C@@H]3O[C@H](CO)[C@@H](O)[C@H](O)[C@H]3O)c(O)ccc12 | 1990
CC1(C)[C@@H](O[C@H]2O[C@H](C(=O)O)[C@@H](O)[C@H](O)[C@H]2O[C@@H]2O[C@H](C(=O)O)[C@@H](O)[C@H](O)[C@H]2O)CC[C@]2(C)[C@H]3C(=O)C=C4[C@@H]5C[C@@](C)(C(=O)O)CC[C@]5(C)CC[C@@]4(C)[C@]3(C)CC[C@@H]12 | 77.1
O=c1cc(-c2ccccc2)oc2cc(O)c(O)c(O)c12 | 381
COc1ccc2c(c1O)-c1c(O)c(OC)cc3c1[C@H](C2)[N+](C)(C)CC3 | 38.3
CC1(C)[C@@H](O)CC[C@]2(C)[C@H]3C(=O)C=C4[C@@H]5C[C@@](C)(C(=O)O)CC[C@]5(C)CC[C@@]4(C)[C@]3(C)CC[C@@H]12 | 643

---

# procedure.summary: Pharmacokinetics/tissue distribution of GQD constituents in the livers of mice after oral GQD
# Type: in vivo, Kunming mice
# experimental.setup: both, Kunming, mouse, liver (homogenate), po, […], liver, mice, oral GQD extract […]; read-out: T1/2 (converted)
Parameter: half-life. Scope: all listed entries.
quantity.name: half-life

chemical.smiles | reported.value
COc1ccc2cc3[n+](cc2c1O)CCc1cc2c(cc1-3)OCO2 | 15 to 19 h
COc1c(O)cc(O)c2c(=O)cc(-c3ccccc3)oc12 | 2 to 3 h
CC1(C)[C@@H](O)CC[C@]2(C)[C@H]3C(=O)C=C4[C@@H]5C[C@@](C)(C(=O)O)CC[C@]5(C)CC[C@@]4(C)[C@]3(C)CC[C@@H]12 | 6 to 7 h
CC1(C)[C@@H](O[C@H]2O[C@H](C(=O)O)[C@@H](O)[C@H](O)[C@H]2O[C@@H]2O[C@H](C(=O)O)[C@@H](O)[C@H](O)[C@H]2O)CC[C@]2(C)[C@H]3C(=O)C=C4[C@@H]5C[C@@](C)(C(=O)O)CC[C@]5(C)CC[C@@]4(C)[C@]3(C)CC[C@@H]12 | 3.8 h
COc1ccc2c(c1O)-c1c(O)c(OC)cc3c1[C@H](C2)[N+](C)(C)CC3 | 5.3 h
O=c1c(-c2ccc(O)cc2)coc2c([C@@H]3O[C@H](CO)[C@@H](O)[C@H](O)[C@H]3O)c(O)ccc12 | 3 to 4 h
